System: RNR containing hRRM2 or p53R2
Construct: In vitro RR activity (IC50) Average; other: compound in 1% DMSO; average of M2/M1 and p53R2/M1; other: compound in 2.5% DMSO; other: compound in dH2O + FeCl3; other: compound in dH2O; Inhi; fused on or other part: 6xHis tag on each subunit
assay-summary: In vitro RNR activity assay, both reconstituted RNRs compared (average, selective index, comparison in words)
Type: biochemical, human
assay-conditions: compound in 1% DMSO; average of M2/M1 and p53R2/M1; read-out: In vitro RR activity (IC50) Average
Method: To reconstitute an active RNR, three 6′His-tag human RNR subunit proteins (hRRM2, p53R2, and hRRM1) were prokaryotically expressed, purified using Ni-resin affinity chromatography, and stored in 50 mM Tris-HCl, pH 7.4, 100 mM KCl at −70° C. according to standard techniques. The purified proteins were subjected to SDS-PAGE analysis. […] To reconstitute RNR, 1 μM of hRRM2 or p53R2 protein was incubated with 0.5 μM hRRM1 protein in multiple-well plates. […]
readout-type: IC50 (µM)
Give just the number in µM; leave the unit off.

# compound, IC50 / µM
records = [
    ("NC(=O)NO [HU, Hydroxyurea]", 153),
]

We next turn to a different compound, shown below.
Q. Answer with the recorded IC50 for the compound listed here: "O=C(NO)NN=Cc1ccc(O)c(O)c1O"
A. 12.5

###

system-tested: p53R2/M1 (p53R2 and hRRM1 reconstituted RNR) (Homo sapiens, UniProt Q7LG56)
Construct: 6xHis; made in house
assay-summary: In vitro RNR activity assay with reconstituted p53R2/hRRM1 ([3H]CDP reduction)
Assay type: biochemical
assay-conditions: compound in dH2O; read-out: In vitro RR activity (IC50 ± sd) p53R2/M1
readout-type: IC50 (µM)
Give just the number in µM; leave the unit off.

Q. Answer with the recorded IC50 for the compound listed here: NC(=O)NO [HU, Hydroxyurea]
A. 190

###

system-tested: p53R2/M1 (p53R2 and hRRM1 reconstituted RNR) (Homo sapiens)
Construct: 6xHis; made in house
Sequence (Q7LG56 1-351): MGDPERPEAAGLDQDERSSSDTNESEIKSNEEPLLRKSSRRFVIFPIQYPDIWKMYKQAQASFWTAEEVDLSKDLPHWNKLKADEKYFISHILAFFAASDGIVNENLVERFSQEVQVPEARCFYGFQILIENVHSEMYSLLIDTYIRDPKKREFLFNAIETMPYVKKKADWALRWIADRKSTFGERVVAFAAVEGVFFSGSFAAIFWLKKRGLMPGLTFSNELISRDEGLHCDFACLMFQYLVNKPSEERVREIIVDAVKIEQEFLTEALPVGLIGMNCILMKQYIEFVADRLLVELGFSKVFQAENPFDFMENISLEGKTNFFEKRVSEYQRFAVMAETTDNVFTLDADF
assay-summary: In vitro RNR activity assay with reconstituted p53R2/hRRM1 ([3H]CDP reduction)
Type: biochemical
assay-conditions: compound in 2.5% DMSO; read-out: In vitro RR activity (IC50 ± sd) p53R2/M1
Listed below: IC50 values for each entry.

Please review the following examples before continuing.
# compound, IC50
rows = [
    ("NC(=O)NO [HU, Hydroxyurea]", "146 µM"),
    ("Cc1c2ccccc2c(C=NNC(=O)NO)c2ccccc12", "> 250 µM"),
    ("O=C(NO)NN=Cc1ccc([N+](=O)[O-])s1", "11.5 µM"),
]

We next turn to a different compound, shown below.
Q. Answer with the recorded IC50 for the compound listed here: "O=C(NO)NN=Cc1cc(Cl)cc(Cl)c1O"
A. 30.6 µM
